self-cleavage by entry:
B1: Hairpin Ribozyme (parent)
chain: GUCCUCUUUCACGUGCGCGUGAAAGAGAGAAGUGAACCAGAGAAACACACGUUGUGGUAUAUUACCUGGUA

Variants of: B1
Experiment: self-cleavage, relative activity (ratio to wild type); higher = more cleavage; co-transcriptional

>  <chain>
GUCCUCUUUCACAUGCGCGUGAAAGAGAGAAGUGAUCCAGAGAAACACACGUUGUGGUAUAUUACCUGGUA [G13A A36U]

>  <self-cleavage>
0.491

$$$$
>  <chain>
GUCCUCUUUCACGUGCGCUUGAAAGAGAGUAGUGAACCAGAGAAACACACGUUGUGGUAUAUUACCUGGUA [G19U A30U]

>  <self-cleavage>
0.181

$$$$
>  <chain>
GUCCUCUUUCACCUGCGCGUGAAAGAGAGAAGUGAACCAGAGAAACACACGUUGAGGUAUAUUACCUGGUA [G13C U55A]

>  <self-cleavage>
0.196

$$$$

Now take the following variant into account.
Report self-cleavage for GUACUCUUUCACGUGCGCGUGAAAGAGAGAAGUGAACCAGAGAAACACACGUUGGGGUAUAUUACCUGGUA [C3A U55G] please.
0.193
